ASSAY PROCEDURE: Lipophilicity, log P of the compound
Type: physicochemical
CONDITION CONTEXT: octanol/water; read-out: logP
Assign labels as follows, please: Yes for logP below 4; No for logP equal to or exceeding 4.

Take a look at these entries with their results.
COc1ccc2c(c1)nc(-c1ccc(F)cc1)n2Cc1ccc(F)cc1: No
COc1ccc2c(c1)nc(-c1ccc3c(c1)OCO3)n2Cc1ccc2c(c1)OCO2: No
COc1ccccc1-c1nc2ccccc2[nH]1: Yes
COc1ccc2[nH]c(-c3ccc(F)cc3)nc2c1: Yes
COc1ccc2c(c1)nc(-c1ccccc1OC)n2Cc1ccccc1OC: No
Fc1ccc(Cn2c(-c3ccc(F)cc3)nc3ccccc32)cc1: No
[H]/N=C(/N)N[C@H]1[C@H](O)[C@@H](O)[C@H](O[C@@H]2O[C@@H](C)[C@](O)(C=O)[C@H]2O[C@@H]2O[C@@H](CO)[C@H](O)[C@@H](O)[C@@H]2NC)[C@@H](N/C(N)=N\[H])[C@@H]1O: No
c1ccc2c(c1)nc(-c1ccc3c(c1)OCO3)n2Cc1ccc2c(c1)OCO2: Yes

For the next question, use this compound.
API: query returns whether the compound falls strictly under 4 in logP. Query: Oc1ccc(-c2nc3ccccc3[nH]2)cc1 Yes

* * *

System: Mus musculus
ASSAY PROCEDURE: Acute toxicity in Swiss albino mouse assessed as effect on RBC count at 50 mg/kg, po after 7 days (reference value: 7.61 +/- 0.54 10^6/mm3)
Assay type: organism-based
CONDITION CONTEXT: in vivo, 168 h
METRIC NAME: Activity

Entry COc1ccc2c(c1)nc(-c1ccccc1OC)n2Cc1ccccc1OC : reported Activity = ? 7.44 10^6/mm3

* * *

Test system: Mus musculus
ASSAY PROCEDURE: Acute toxicity in Swiss albino mouse assessed as effect on WBC count at 5 mg/kg, po after 7 days (reference value: 7.47 +/- 1.61 10^3/mm3)
Format: organism-based
CONDITION CONTEXT: in vivo, 168 h
METRIC NAME: Activity

Name the reported Activity value associated with the compound COc1ccc2c(c1)nc(-c1ccccc1OC)n2Cc1ccccc1OC 7.72 10^3/mm3

* * *

System: Mus musculus
ASSAY PROCEDURE: Acute toxicity in Swiss albino mouse assessed as effect on RBC count at 5 mg/kg, po after 7 days (reference value: 7.61 +/- 0.54 10^6/mm3)
Assay type: organism-based
CONDITION CONTEXT: in vivo, 168 h
METRIC NAME: Activity

Sample COc1ccc2c(c1)nc(-c1ccccc1OC)n2Cc1ccccc1OC — what was its Activity? 6.92 10^6/mm3

* * *

TARGET OR SYSTEM: DNA gyrase subunit A/DNA gyrase subunit B (Mycobacterium tuberculosis (strain ATCC 25618 / H37Rv), UniProt P9WG45+P9WG47)
Sequence (P9WG45 whole entry): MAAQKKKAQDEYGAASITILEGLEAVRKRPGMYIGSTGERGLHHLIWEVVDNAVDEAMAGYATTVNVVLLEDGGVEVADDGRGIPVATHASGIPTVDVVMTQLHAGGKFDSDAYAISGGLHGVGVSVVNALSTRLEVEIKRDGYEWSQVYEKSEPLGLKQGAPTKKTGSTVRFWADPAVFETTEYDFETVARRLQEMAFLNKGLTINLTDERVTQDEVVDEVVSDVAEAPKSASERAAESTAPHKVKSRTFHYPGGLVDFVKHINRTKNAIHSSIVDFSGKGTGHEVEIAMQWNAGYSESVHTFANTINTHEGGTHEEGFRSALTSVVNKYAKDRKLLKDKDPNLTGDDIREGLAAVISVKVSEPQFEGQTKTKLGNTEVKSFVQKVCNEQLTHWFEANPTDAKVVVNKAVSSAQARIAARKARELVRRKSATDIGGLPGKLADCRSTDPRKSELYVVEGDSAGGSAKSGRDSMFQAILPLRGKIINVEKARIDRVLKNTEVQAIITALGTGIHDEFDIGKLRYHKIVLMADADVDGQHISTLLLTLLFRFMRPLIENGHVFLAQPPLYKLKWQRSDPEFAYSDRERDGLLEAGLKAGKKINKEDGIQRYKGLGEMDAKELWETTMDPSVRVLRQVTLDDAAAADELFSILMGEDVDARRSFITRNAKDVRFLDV
Sequence (P9WG47 whole entry): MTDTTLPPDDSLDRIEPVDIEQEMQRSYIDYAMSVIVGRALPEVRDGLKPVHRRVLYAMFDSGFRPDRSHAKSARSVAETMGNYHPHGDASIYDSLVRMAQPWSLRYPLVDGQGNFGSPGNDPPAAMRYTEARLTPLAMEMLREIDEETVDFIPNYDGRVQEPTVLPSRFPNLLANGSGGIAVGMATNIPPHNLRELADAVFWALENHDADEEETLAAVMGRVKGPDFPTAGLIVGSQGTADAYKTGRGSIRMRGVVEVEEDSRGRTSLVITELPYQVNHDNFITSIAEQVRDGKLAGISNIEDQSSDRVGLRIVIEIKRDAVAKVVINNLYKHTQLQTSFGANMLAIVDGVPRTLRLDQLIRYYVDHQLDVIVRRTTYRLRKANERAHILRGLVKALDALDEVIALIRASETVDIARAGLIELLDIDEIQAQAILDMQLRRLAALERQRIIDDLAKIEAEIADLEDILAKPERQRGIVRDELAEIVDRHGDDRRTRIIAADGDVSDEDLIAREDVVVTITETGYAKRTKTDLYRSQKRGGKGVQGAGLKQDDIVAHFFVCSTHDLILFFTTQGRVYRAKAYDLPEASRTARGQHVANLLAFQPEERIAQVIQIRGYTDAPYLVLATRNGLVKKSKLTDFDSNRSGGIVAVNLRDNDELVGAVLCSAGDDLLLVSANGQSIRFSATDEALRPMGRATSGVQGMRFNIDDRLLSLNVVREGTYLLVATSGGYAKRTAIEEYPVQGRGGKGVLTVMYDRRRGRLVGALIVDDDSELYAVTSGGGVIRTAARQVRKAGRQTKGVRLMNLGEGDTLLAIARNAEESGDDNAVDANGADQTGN
ASSAY PROCEDURE: Inhibition of Mycobacterium tuberculosis DNA gyrase supercoiling activity using relaxed pBR322 as substrate after 30 mins by agarose gel electrophoresis
METRIC NAME: IC50 (µM)
Reply with just the number (in µM).

Would you please look over these solved cases?
c1ccc2c(c1)nc(-c1ccc3c(c1)OCO3)n2Cc1ccc2c(c1)OCO2: 85.7
COc1ccc2c(c1)nc(-c1ccccc1OC)n2Cc1ccccc1OC: 358
COc1ccc2[nH]c(-c3ccc(F)cc3)nc2c1: 380

Now take the following molecule into account.
Quick one: IC50 of COc1ccc2c(c1)nc(-c1ccc3c(c1)OCO3)n2Cc1ccc2c(c1)OCO2 ? 294
